The values you see were collected from PubChem BioAssay (NCI).

- Tested on: SK-OV-3 ovarian
- Method: NCI tumour cell line growth inhibition, 48 h
Exercise: state measured TGI for each of the compounds provided.

Give the observed TGI of COc1ccc2nc3n(c2c1)C(c1c(Cl)cccc1Cl)SC3 (stereo unspecified) for SK-OV-3 ovarian.
> 100 µM

Using SK-OV-3 ovarian as the test system, report measured TGI of Nc1ccccc1N=Nc1c(S(=O)(=O)O)cc2cc(S(=O)(=O)O)cc(O)c2c1O .
> 100 µM

Print SK-OV-3 ovarian TGI for CC(=O)Nc1ccc2cc3[nH]c4cc(NC(C)=O)ccc4c3nc2c1 .
> 100 µM

Report value: TGI, system: SK-OV-3 ovarian, compound: NC(=S)NS(=O)(=O)c1ccc(F)cc1F
> 100 µM

Lab note: SK-OV-3 ovarian assay, enter TGI for O=[N+]([O-])c1nccn1CCCNCCCn1ccnc1[N+](=O)[O-] here
> 100 µM

Enter TGI (test system SK-OV-3 ovarian) for CC(=N)N(C)O
> 100 µM

Give reported TGI for CCCN1C(=O)/C(=C/c2ccc(O)cc2)SC1=Nc1ccc(OC)cc1 (SK-OV-3 ovarian)
41.9 µM

System SK-OV-3 ovarian. Read-out TGI. Item CSc1nc(NC2OC(COC(C)=O)C(OC(C)=O)C(OC(C)=O)C2OC(C)=O)c(N=C(C)C(C)=O)c(=O)n1C (stereo unspecified) . Report value.
> 100 µM

# return TGI of C=C1CC(CN2CCC(=O)NC2=O)(c2ccccc2)OC1=O (stereo unspecified) (system: SK-OV-3 ovarian)
30.4 µM

Give the observed TGI of C1CCN2CC3CCCN4CCCC(C2C1)C34 (stereo unspecified) for SK-OV-3 ovarian.
> 100 µM

Provide TGI, recorded with SK-OV-3 ovarian, of Cc1cc(C)n(CN(Cn2nc(C)cc2C)c2ccccc2)n1
> 100 µM
